- TEST_TARGET: Carboxy-terminal domain RNA polymerase II polypeptide A small phosphatase 1 (Homo sapiens)
- Sequence (Q9GZU7 whole entry): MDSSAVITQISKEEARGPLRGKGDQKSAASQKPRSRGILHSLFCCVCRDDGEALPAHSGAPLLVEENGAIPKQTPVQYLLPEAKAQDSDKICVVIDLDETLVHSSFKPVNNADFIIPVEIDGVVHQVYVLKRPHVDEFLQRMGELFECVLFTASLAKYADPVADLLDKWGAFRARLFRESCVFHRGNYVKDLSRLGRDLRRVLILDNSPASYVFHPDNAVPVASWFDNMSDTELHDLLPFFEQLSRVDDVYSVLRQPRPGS
- METHOD_SUMMARY: inhibitors of CTDSP1, concentration-response testing, biochemical assay, absorbance-based, actives from ultra-high-throughput screening (AID 540297)
- Format: functional
Active and inactive are the calls of the source.
Quick reference: IC50 of the listed items.

The following molecules have reported results that may help.
SUBSTANCE_SMILES	MEASUREMENT_TYPE	RECORDED_RESULT
COc1ccc(O)c(/C=N/NC(=O)c2c(C)nnn2-c2nonc2N)c1	IC50	6.12 µM (active)
COC(=O)c1ccc(/C=N/NC(=O)c2cccc(F)c2)cc1	IC50	11.4 µM (active)

I am curious: what IC50 value has been reported for "Cc1cc(=O)oc2cc(NC(=O)c3cccc(F)c3)ccc12" ?
4.51 µM (active)

I am curious: what IC50 value has been reported for "O=C(CN1C(=O)NC2(CCCC2)C1=O)OCc1cc(=O)n2cc(Br)ccc2n1" ?
6.81 µM (active)

I am curious: what IC50 value has been reported for "O=C(O)c1ccc(/C=N/NC(=O)c2cc(-c3ccc4c5c(cccc35)CC4)[nH]n2)cc1" ?
4.31 µM (active)

---

Quick reference: IC50 of the listed items.
- TEST_TARGET: Sentrin-specific protease 1 (Homo sapiens, UniProt Q9P0U3)
- Sequence (Q9P0U3 whole entry, the tested form may be a part): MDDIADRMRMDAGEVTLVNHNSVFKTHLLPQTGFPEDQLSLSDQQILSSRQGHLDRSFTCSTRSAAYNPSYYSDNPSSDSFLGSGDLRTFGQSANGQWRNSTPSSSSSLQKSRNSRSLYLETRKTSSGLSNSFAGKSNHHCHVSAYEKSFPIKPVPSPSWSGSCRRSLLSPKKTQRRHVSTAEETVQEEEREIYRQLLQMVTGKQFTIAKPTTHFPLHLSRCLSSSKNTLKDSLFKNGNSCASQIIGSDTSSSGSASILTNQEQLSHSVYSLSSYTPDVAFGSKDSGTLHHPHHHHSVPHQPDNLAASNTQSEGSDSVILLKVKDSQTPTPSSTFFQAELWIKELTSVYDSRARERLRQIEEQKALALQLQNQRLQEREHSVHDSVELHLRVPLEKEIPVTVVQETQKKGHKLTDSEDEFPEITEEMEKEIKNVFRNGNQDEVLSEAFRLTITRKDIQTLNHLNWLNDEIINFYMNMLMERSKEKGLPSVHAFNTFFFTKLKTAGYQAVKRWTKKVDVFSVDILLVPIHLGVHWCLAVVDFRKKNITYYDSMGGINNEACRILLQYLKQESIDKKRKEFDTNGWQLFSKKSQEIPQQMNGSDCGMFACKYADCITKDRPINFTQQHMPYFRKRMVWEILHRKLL
- METHOD_SUMMARY: Dose response confirmation of small molecule inhibitors of the catalytic domain of the SUMO protease, SENP1 in a FRET assay.
- Format: functional
- EXPERIMENTAL_PARAMETERS: read-out: IC50_Mean
Counter-ions that a name gives are not always drawn. The source made the active and inactive calls.

The following molecules have reported results that may help.
MOLECULE	IC50
CN1Cc2c(N)cccc2C(c2ccccc2)C1 (stereo not given) [NOMIFENSINE MALEATE]	8.71 µM (active)
COc1ccc(C2C(C(C)=O)=C(C)N=c3s/c(=C\c4ccco4)c(=O)n32)c(OC)c1 (stereo not given)	20.2 µM (inactive)
COc1cc(O)c(C=Nc2ccccc2NS(=O)(=O)c2ccc(C)cc2)c(OC)c1	15.2 µM (active)
Cn1c(=O)c2[nH]c(-c3ccccc3)c(O)c2n(C)c1=O	5.27 µM (active)

// moving on: another record for IC50
I am curious: what IC50 value has been reported for "CN(C)c1ccc(/C=N/NC(=O)/C(O)=C\C2=NC3(CCCC3)Cc3ccccc32)cc1" ?
13.2 µM (active)

---

- TEST_TARGET: Protein Wnt-3a (Mus musculus)
- Sequence (P27467 whole entry): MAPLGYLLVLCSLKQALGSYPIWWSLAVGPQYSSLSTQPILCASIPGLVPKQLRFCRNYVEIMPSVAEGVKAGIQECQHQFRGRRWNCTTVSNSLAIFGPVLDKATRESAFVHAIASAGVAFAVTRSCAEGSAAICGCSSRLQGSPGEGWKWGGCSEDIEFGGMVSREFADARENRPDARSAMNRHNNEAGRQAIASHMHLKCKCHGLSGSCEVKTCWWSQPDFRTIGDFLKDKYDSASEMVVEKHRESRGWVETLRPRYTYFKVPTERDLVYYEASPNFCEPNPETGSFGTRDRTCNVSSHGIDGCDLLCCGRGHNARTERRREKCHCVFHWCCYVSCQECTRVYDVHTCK
- METHOD_SUMMARY: Wnt3a-driven reporter signaling inhibition, dose response, selectivity assay for Gli-SUFU antagonist project, Wnt-LIGHT cells, luminescence (AID 651570);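 also: Wnt-LIGHT reporter cells stimulated with conditioned medium from Wnt3a-producing cells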
- Assay type: functional
- EXPERIMENTAL_PARAMETERS: read-out: IC50_Mean
Calls of active or inactive are those of the source.
Write down one outcome, taken from true = active, false = inactive

SUBSTANCE_SMILES	CLASSIFICATION
C/C(=N\Nc1ccc(Cl)nn1)c1ccccc1O	false
CC(C)(C)OC(=O)NCCCCCc1cn(CC(=O)NCCCCCCCCCCC(=O)N2CCN(C(=O)OC(C)(C)C)CC2)nn1	false
Cc1cccc(CCN2C(N(C)C)=NC[C@@H]2CC(C)C)c1	true
COCCNc1nc2c(c(=O)n(C)c(=O)n2C)n1Cc1cccc(C(F)(F)F)c1	true

Now let's try a different one.
Dear colleague, could you share the recorded outcome for "Cn1nc(CC(=O)NCc2ccc(C(F)(F)F)cc2)c2ccccc2c1=O" when you have a moment?
true

---

- TEST_TARGET: Trace amine-associated receptor 1 (Homo sapiens);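 also: inhibition of calcium response to PEA at EC80 in Galpha16 coupled cells measured by Fluo-8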
- Sequence (Q96RJ0 whole entry): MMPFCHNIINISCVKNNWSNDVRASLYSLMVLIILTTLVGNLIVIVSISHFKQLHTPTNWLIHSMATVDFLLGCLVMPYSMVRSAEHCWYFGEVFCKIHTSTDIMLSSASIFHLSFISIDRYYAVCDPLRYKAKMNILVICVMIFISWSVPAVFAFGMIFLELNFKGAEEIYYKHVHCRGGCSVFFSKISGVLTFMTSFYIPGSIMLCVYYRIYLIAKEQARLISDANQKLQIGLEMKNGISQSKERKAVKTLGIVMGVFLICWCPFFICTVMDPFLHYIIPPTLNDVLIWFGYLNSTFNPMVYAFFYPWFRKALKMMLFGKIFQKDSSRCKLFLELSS
- METHOD_SUMMARY: Counterscreen for agonists of the human trace amine associated receptor 1 (hTAAR1): Fluorescence-based cell-based high throughput dose response assay to identify hTAAR1 agonist that also desensitize TAAR1 receptor response.
- Format: functional
The source made the active and inactive calls.
Write down one outcome, taken from active, inactive

Past entries and their recorded results:
MOLECULE	CLASSIFICATION
O=C(Nc1cccc2ccccc12)N1CCc2ccccc2C1	active
O=C(CNC(=O)c1ccccc1F)N/N=C\C=C\c1ccccc1	active
COc1cccc(NC(=N)N)c1	active
COc1cccc(C)c1NC1=NCCO1	active
OC(COC(c1ccc(Cl)cc1)c1ccc(Cl)cc1)CN1CCc2ccccc2C1 (stereo unspecified)	active

Now let's try a different one.
Dear colleague, could you share the recorded outcome for O=C(O)C1C2CCC(C2)C1C(=O)NCCC1=CCCCC1 (stereo unspecified) when you have a moment?
inactive

---

- TEST_TARGET: Luciferin 4-monooxygenase (Photinus pyralis, UniProt P08659)
- Sequence (P08659 whole entry): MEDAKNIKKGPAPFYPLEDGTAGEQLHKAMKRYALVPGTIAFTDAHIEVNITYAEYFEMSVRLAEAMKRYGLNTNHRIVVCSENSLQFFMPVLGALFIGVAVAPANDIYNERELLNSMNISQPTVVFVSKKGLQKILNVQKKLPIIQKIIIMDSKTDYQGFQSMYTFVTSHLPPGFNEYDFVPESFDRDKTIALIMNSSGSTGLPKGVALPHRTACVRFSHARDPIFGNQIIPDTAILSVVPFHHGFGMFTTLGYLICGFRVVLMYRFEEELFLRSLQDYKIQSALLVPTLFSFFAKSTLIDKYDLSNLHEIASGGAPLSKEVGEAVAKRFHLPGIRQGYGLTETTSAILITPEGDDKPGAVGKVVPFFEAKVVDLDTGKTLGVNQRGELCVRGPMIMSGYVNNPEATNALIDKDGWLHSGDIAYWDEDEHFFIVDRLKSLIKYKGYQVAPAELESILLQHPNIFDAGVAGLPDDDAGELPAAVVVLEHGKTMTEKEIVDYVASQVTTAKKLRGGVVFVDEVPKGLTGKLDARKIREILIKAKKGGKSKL
- METHOD_SUMMARY: Counter Screen for Luciferase-based Assay Positives. [Related pubchem assays: 620, 618, 411 ]
The source made the active and inactive calls.
Quick reference: EC50 of the listed items.

SUBSTANCE_SMILES	RECORDED_RESULT
Cc1cc(C(=O)Nc2cccc(C(=O)O)c2)oc1C	< 0.2 µM (active)
CCc1ccc2oc(-c3cccc(N)c3)nc2c1	0.37 µM (active)
COc1ccc(-c2cc3nnc(-c4ccccc4)nc3s2)cc1	0.27 µM (active)

I am curious: what EC50 value has been reported for "N#Cc1cc2c(nc1SCC(=O)Nc1nccs1)CCCCC2" ?
> 100 µM (not active)

---

Quick reference: IC50 of the listed items.
- TEST_TARGET: Hexokinase HKDC1 (Homo sapiens)
- Sequence (Q2TB90 whole entry): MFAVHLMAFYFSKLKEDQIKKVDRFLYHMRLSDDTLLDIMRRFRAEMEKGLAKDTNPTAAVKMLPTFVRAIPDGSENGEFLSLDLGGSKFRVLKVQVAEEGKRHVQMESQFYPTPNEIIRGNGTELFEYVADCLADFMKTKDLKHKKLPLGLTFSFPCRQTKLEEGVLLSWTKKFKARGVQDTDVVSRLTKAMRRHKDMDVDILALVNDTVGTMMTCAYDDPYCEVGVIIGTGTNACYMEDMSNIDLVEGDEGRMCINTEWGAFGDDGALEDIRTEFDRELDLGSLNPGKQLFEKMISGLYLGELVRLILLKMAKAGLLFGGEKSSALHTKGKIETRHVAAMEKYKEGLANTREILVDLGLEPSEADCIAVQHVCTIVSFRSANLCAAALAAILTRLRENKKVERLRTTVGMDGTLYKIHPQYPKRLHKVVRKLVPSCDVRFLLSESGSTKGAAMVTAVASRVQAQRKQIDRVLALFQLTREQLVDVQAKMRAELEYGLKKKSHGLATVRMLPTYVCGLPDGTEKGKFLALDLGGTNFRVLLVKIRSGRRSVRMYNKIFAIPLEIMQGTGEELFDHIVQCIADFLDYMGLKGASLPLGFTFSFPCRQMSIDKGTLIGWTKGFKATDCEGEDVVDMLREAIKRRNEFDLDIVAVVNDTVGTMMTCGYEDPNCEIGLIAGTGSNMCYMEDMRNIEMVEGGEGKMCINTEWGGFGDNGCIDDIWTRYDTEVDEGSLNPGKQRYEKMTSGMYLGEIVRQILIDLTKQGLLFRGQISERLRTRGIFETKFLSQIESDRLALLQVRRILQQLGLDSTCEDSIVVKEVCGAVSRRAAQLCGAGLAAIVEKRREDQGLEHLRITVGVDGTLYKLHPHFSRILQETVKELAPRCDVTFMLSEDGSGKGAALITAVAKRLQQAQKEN
- METHOD_SUMMARY: HKDC1 hexokinase inhibitors, dose response, biochemical, W721R variant (AID 504729)
- Type: functional
Calls of active or inactive are those of the source.

COMPOUND	IC50
O=C1C=C(NCc2ccccc2)c2ccccc2C1=O	2.5 µM (active)
Cc1cc(C)n2nc(SCc3nnc(SCc4ccccc4C)s3)nc2n1	5.17 µM (active)
CCOc1ccc2c(c1)C(NC(C)=O)C(=O)N2CCN1CCOCC1 (centres undefined)	6.63 µM (active)

// moving on: another record for IC50
Form field - read-out: IC50; system: Hexokinase HKDC1 (Homo sapiens); submitted item: "Oc1nc2ccccc2n2c(-c3ccccc3)nnc12"
7.52 µM (active)

---

- METHOD_SUMMARY: microbe, parasite or virus in culture
- Format: functional
- EXPERIMENTAL_PARAMETERS: Mycobacterium tuberculosis
Calls of active or inactive are those of the source.
Quick reference: CC50 of the listed items.

I am curious: what CC50 value has been reported for "Clc1ccc(CNc2nc(CN3CCOCC3)nc3scc(-c4ccccc4)c23)cc1" ?
> 40 µM (active)

I am curious: what CC50 value has been reported for COc1ccc(N2COC3c4cccc5cccc(c45)C32)cc1 (stereo not given) ?
> 40 µM (active)

I am curious: what CC50 value has been reported for "Oc1cc(NCc2cccnc2)ccc1-c1nc2ccccc2o1" ?
> 40 µM (active)

I am curious: what CC50 value has been reported for "Cc1ccc2[nH]c(/C(C#N)=C/c3c[nH]nc3-c3ccc(F)cc3)nc2c1" ?
26.9 µM (active)

I am curious: what CC50 value has been reported for "CC(C)(C)c1csc(NC(=O)c2c(F)c(F)c(F)c(F)c2F)n1" ?
34 µM (active)

---

- TEST_TARGET: UniProtKB Q9BQF6
- Sequence (Q9BQF6 whole entry): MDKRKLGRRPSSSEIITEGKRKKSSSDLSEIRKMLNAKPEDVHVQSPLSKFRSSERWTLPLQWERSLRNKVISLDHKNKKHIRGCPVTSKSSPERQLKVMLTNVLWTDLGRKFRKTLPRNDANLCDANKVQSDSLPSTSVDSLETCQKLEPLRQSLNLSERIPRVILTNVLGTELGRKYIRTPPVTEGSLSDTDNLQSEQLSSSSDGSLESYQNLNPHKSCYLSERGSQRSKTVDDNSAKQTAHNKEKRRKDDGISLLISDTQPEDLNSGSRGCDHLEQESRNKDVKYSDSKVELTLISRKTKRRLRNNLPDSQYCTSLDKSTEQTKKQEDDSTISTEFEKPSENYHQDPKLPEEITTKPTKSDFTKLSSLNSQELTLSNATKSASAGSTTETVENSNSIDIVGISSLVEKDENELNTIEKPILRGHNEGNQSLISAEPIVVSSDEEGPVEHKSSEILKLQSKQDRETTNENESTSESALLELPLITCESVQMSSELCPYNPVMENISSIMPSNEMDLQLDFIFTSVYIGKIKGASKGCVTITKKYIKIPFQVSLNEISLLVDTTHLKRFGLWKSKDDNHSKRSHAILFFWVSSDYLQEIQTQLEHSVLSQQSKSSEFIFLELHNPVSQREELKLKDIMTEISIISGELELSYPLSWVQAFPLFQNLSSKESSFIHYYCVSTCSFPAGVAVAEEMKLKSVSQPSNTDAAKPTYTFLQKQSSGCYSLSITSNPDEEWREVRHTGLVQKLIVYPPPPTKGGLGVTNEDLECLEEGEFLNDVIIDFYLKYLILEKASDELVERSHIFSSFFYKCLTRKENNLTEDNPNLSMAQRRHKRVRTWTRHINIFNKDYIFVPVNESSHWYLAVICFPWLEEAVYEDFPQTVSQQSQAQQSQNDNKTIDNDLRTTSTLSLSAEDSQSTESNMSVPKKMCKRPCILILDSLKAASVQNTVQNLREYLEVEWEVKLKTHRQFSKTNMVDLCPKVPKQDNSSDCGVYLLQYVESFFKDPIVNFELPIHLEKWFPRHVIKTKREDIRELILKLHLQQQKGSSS
- Assay type: functional
The source made the active and inactive calls.
MEASUREMENT_TYPE: IC50

SUBSTANCE_SMILES	TEST_TARGET	IC50
Clc1cccc(-c2ccc(-c3nc4ccccn4c3NCc3ccccc3)cc2)c1	UniProtKB Q9BQF6	7.22 µM (active)
Oc1[nH]c2ccccc2c1N=Nc1nc2ccccc2s1	UniProtKB Q9BQF6	4.3 µM (active)
O=C(OCc1ccccc1Cl)c1cccnc1Cl	UniProtKB Q9BQF6	11.8 µM (active)
O=C(Nc1ccccc1)Nc1ccccc1C(=O)NCc1ccccc1	UniProtKB Q9BQF6	6.13 µM (active)
O=C(COC(=O)c1ccc([N+](=O)[O-])s1)c1ccc[nH]1	UniProtKB Q9BQF6	18.4 µM (active)
CCOC(=O)/C(C#N)=C/c1ccc(N2CCCCC2)cc1	UniProtKB Q9BQF6	7.1 µM (active)

I am curious: what IC50 value has been reported for "O=c1[nH]c(/C=C/c2ccccc2Cl)nc2ccccc12" ?
1.64 µM (active)

I am curious: what IC50 value has been reported for "COc1ccc(C(=O)COC(=O)c2ccccc2O)c(OC)c1" ?
8.26 µM (active)

I am curious: what IC50 value has been reported for "Brc1c(-c2ccccc2)nc2n1Cc1ccccc1-2" ?
5.23 µM (active)

I am curious: what IC50 value has been reported for "Cc1ccc(O)c(C2=Nc3ccccc3C2(C)C)c1" ?
4.9 µM (active)
